Catalogue of Kd readings, one per entry.
- tested.system: T1, human PD-1 dimer (human PD-1-mFc or human PD-1-hFc) (human, UniProt Q15116 25-170)
- T1 construct: also called hPD-1-mFc; hPD1-hFc
- T1 sequence (Q15116 25-170 C93S): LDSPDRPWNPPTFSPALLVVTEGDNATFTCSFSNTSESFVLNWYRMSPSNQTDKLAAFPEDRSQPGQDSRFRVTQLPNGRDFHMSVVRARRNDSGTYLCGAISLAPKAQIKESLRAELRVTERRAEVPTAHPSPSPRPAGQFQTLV
- experiment.notes: SPR, mAb captured, 25C;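 further: surface plasmon resonance on Biacore, PD-1 flowed over captured anti-PD-1 antibodies, rate constants from a 1:1 binding model fit, KD taken as kd/ka and t½ as ln2/(60·kd)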
value.type: Kd (nM)

>>> reported("H4H7798N (antibody, human IgG4 S228P, kappa, V domains shown) VH: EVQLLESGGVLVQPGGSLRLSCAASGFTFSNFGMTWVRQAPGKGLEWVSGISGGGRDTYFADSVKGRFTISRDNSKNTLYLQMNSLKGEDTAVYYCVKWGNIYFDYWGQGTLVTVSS VL: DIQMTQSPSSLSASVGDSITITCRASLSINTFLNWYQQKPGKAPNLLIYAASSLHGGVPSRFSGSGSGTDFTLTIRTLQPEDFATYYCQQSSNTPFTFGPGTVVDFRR")
0.122
>>> reported("H2aM7780N (antibody, mouse IgG2a, V domains shown, Human variable regions, mouse IgG2a Fc (H2aM prefix); also called H2M7780N) VH: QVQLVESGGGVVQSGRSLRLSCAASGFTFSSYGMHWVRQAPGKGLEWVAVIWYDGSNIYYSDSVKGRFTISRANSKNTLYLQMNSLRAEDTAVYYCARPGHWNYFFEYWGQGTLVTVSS VL: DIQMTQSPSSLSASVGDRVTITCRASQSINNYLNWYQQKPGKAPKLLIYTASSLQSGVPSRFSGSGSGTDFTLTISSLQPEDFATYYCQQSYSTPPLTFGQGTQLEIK")
0.236
